pKi: −log10 of the molar value.
For reference, the following pKi results for 5-hydroxytryptamine receptor 1A (Homo sapiens, UniProt P08908) were taken from various sources.
Hi, to clarify the labels: Fulfilled covers pKi from 7 upward, Not fulfilled covers anything below 7.

Solved cases (5 shown):
[
  {
    "COMPOUND": "COc1ccccc1N1CCN(CCn2ncc(=O)n(C)c2=O)CC1",
    "GROUP": "Not fulfilled"
  },
  {
    "COMPOUND": "CN1CCN(c2nc(N)nc(COc3ccc(Cl)cc3Cl)n2)CC1",
    "GROUP": "Not fulfilled"
  },
  {
    "COMPOUND": "COc1ccccc1N1CCN(CCCCNC(=O)[C@H]2CCCN2C(=O)CC2CC3CCC2C3)CC1 (some centres not stated)",
    "GROUP": "Fulfilled"
  },
  {
    "COMPOUND": "C=Cc1ccc(N2CCN(Cc3c[nH]c4ncccc34)CC2)cc1",
    "GROUP": "Not fulfilled"
  },
  {
    "COMPOUND": "CC(=O)c1c(C)cc2oc(=O)cc(C)c2c1OCCCCN1CCN(c2ccccc2F)CC1",
    "GROUP": "Fulfilled"
  }
]

Next compound, please.
Does `NC(=O)[C@@H]1Cc2ccccc2CN1C(=O)CCCCCN1CCN(c2ccccc2Cl)CC1` have a reported pKi of at least 7? Not fulfilled
